- subject-of-test: T1, Human IL-11 (human, UniProt P20809 22-199)
- T1 construct: Recombinant human IL-11 (GenScript Cat. No. Z03108-1) or IL-11 secreted by human cells; the mature form is said to have 178 residues; also called recombinant human IL-11; endogenously produced IL-11
- T1 sequence: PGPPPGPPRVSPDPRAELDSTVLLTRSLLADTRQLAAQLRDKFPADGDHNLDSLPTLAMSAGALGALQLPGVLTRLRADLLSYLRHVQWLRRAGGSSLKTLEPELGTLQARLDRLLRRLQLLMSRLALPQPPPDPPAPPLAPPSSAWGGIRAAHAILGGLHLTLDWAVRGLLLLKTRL
- test-details: SPR (BIAcore T200) single cycle kinetics, human IL-11 on CM5 chip, 1:1 model
value-type: koff (s⁻¹)
Hi! Could you send only the number? It should be in s⁻¹, unit omitted.

# example entries with known answers
{"binder": "YU100-G08 (antibody, human IgG1, V domains shown, Light chain shuffled human antibody; Only the variable domains are tied to the clone) VH: QVQLVQSGGGVVQPGRSLRLSCAASGFTFSSYGMHWVRQAPGKGLEWVAVISYDGSNKYYADSVKGRFTISRDNSKNTLYLQMNSLRAEDTAVYYCAKIGATDPLDYWGQGTLVTVSS VL: QSALTQPRSVSGSPGQSVTLSCTGTSSDVGGYNYVSWYQHYPGKAPKLMIFDVNERSSGVPDRFSGSKSGNTASLTISGLQAEDEADYYCCSYAGRYTWMFGGGTKVTVLG", "number": 0.0013}
{"binder": "02V (antibody, IgG1, V domains shown, C91V variant of the YU100-G08 VL) VH: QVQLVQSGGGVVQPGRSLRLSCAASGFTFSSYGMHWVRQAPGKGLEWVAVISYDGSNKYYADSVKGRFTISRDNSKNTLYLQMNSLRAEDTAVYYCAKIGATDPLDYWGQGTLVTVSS VL: QSALTQPRSVSGSPGQSVTLSCTGTSSDVGGYNYVSWYQHYPGKAPKLMIFDVNERSSGVPDRFSGSKSGNTASLTISGLQAEDEADYYCVSYAGRYTWMFGGGTKVTVLG", "number": 0.00215}

With those in mind, consider the next binder.
Form field: reported koff of YU100-G08_02A (antibody, V domains shown, C91A variant of the YU100-G08 VL) VH: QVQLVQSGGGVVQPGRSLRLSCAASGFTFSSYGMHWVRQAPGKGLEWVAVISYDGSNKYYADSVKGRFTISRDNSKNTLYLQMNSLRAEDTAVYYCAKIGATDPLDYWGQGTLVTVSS VL: QSALTQPRSVSGSPGQSVTLSCTGTSSDVGGYNYVSWYQHYPGKAPKLMIFDVNERSSGVPDRFSGSKSGNTASLTISGLQAEDEADYYCASYAGRYTWMFGGGTKVTVLG 0.00312
